# Test system: HOP-92 NSCLC
# assay info: NCI-60 one-dose screen, 48 h (100 = growth as untreated, 0 = no growth, -100 = all killed)
# measurement conditions: 10 µM unless noted
The panel holds about 83,000 compounds, 20% with a hit somewhere; the sample as a whole holds those more often.
Param label: returns 1 when growth < 80%, returns -1 otherwise, including exact equality.

Reference set (3 entries):
Input: Is 80% strictly greater than the molecule's reported growth? molecule: O=C(O)c1ccc2c(c1)C(=O)N(Cc1ccccc1)C2=O
Output: -1

Input: Continue with O=C(Nc1ccccc1C(=O)N/N=C(\c1ccccc1)c1ccccn1)c1ccc(F)cc1
Output: 1

Input: Now try CN1C(N2CCN(S(=O)(=O)c3ccccc3)CC2)=NS(=O)(=O)c2ccccc21 .
Output: -1

---
Input: Lab note: confirm whether the reported growth for this molecule is below 80%, equality not counting. molecule: C=C(C)[C@@H]1CC[C@]2(C(=O)N3CCN(C)CC3)CC[C@]3(C)[C@H](CC[C@@H]4[C@@]5(C)C/C(=C/c6cccnc6)C(=O)C(C)(C)[C@@H]5CC[C@]43C)[C@@H]12
Output: 1

Input: Now consider O=C(N/N=C/c1ccc(Oc2ccccc2)cc1)c1cnn2c1NC(c1ccccc1)C2 (stereo unspecified) and answer again.
Output: 1

Input: Now give it for COc1cccc(C(=O)NNc2nc(Cl)nc(N3CCN(C(c4ccccc4)c4ccccc4)CC3)n2)c1 too.
Output: 1

Input: Next: O=C1/C=C/[C@@H](O)[C@@H]2C[C@@H](O)C[C@H]2/C=C/CCC[C@H](CCc2cccc3ccccc23)O1
Output: 1

Input: // same read-out, input: NS(=O)(=O)c1ccc(CCn2c(SCC(=O)c3ccc(Cl)cc3)nc3ccccc3c2=O)cc1
Output: -1
